# EXPERIMENT NOTES: Plasmodium falciparum growth inhibition, primary screen, strain 3D7, DAPI fluorescence, 100 nL (AID 1184);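 further: parasites grown inside human red blood cells in medium with human serum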
# CONDITION INFO: P. falciparum 3D7 growth, 3 d, higher = more signal
# binarize z-score: threshold -0.4 inclusive, high side T, low side F

Sample answers from the record:
[[record]]
compound = "C#CCCCON=C1C[C@@H](O)[C@@H](O)[C@@H]2[C@@H]3C(=O)N(Cc4ccc5c(c4)OCO5)C(=O)[C@@H]3CC[C@H]12"
class = "T"

[[record]]
compound = "CC[C@H]1C2=C3C(CC[C@H]4C(OC)OC[C@](C)([C@@H]34)N(C(=O)OC(C)(C)C)C2)C(CO)C1CO (stereo partly drawn)"
class = "F"

[[record]]
compound = "COc1ccc([C@H]2C[C@H]3C(Br)=C[C@]2(OC)C(=O)[C@]32CO2)cc1"
class = "T"

[[record]]
compound = "CCOC(=O)C[C@H]1[C@H](OC(=O)Cc2ccc3c(c2)OCO3)[C@@H](NC(=O)c2ccc3ccccc3c2)c2cc(OCCCO)ccc2N1C(=O)Cc1ccc(OC)cc1"
class = "F"

[[record]]
compound = "O=C(NCc1ccccc1)[C@@]1(CCS(=O)(=O)c2ccccc2)COC(c2ccc(OCCCO)cc2)=N1"
class = "F"

[[record]]
compound = "Cc1ccc(N2C(=O)c3ccccc3[C@](C)(C(=O)NCC(C)C)[C@@H]2c2ccc(CO)cc2)nc1"
class = "T"


Item O=C1NC(=O)C2C1C=CC(C(O)C=Cc1ccc([N+](=O)[O-])cc1)N2Nc1ccccn1 (stereo not drawn) with z-score of -0.4 or above?
T

Then what about the compound `CO[C@H]1COC(=O)CC=C[C@H](C)COC(=O)[C@@H](OCc2ccccc2)C=C[C@@H]1C` ?
F

====

# EXPERIMENT NOTES: CREB reporter modulators without forskolin, primary screen, cell-based, PC12, CRE-LacZ reporter, unstimulated (AID 1145)
# CONDITION INFO: no forskolin, luminescence, 4.5 h, higher = more signal, called active from +8 up or from −8 down
# binarize z-score: threshold 1 inclusive, high side satisfied, low side not satisfied

Sample answers from the record:
[[record]]
molecule = "CCCC=C(CCC)[C@@H](NC(=O)c1ccccc1)c1ccccc1"
class = "not satisfied"

[[record]]
molecule = "COC(=O)C1=CC(c2ccc(CO)cc2)=CC(c2cccs2)N(Cc2cccc(OC(F)(F)F)c2)C=C1C(=O)OC (stereo unspecified)"
class = "not satisfied"

[[record]]
molecule = "O=C(N1CCCCC1)[C@@]1(CCS(=O)(=O)c2ccccc2)N=C(c2ccc(OCCCO)cc2)O[C@H]1c1ccccc1"
class = "not satisfied"

[[record]]
molecule = "CSCC[C@@H]1NC(=O)CC=C[C@@H](C)COC(=O)[C@H](CCSC)NC(=O)CC=C[C@@H](C)COC1=O"
class = "not satisfied"

[[record]]
molecule = "[N-]=[N+]=Nc1ccccc1C[C@@]1(C(=O)N2CCOCC2)N=C(c2ccc(OCCCO)cc2)O[C@@H]1c1ccccc1N=[N+]=[N-]"
class = "satisfied"


In the following, a different molecule is considered.
Item O=C1C2C=CC(C(O)C(c3ccccc3)c3ccccc3)N(Nc3ccc([N+](=O)[O-])cc3)C2C(=O)N1c1ccccc1 (stereo unspecified) with z-score of 1 or above?
not satisfied

====

# EXPERIMENT NOTES: small-molecule microarray binders of probe aXIP, primary screen, biochemical, NeuroSMM set, 635/667 nm fluorescence (AID 1119);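 further: probe is the protein aXip251-270 applied at 1 µg/mL to compound-printed slides; binding of probe to printed compounds measured as 667 nm fluorescence plus signal to noise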
# CONDITION INFO: higher = more signal, called active from +8 up or from −8 down
# Lookup of reported composite Z-score keyed by entry
Reply briefly: the number, and no unit.

Suppose we examine the compound `C[C@@H]1CC[C@H]2C(=O)N3[C@@H](CC[C@@H](C)[C@@H]3c3cccc(N4CCOCC4)c3)C(=O)N2[C@H]1c1cccc(Br)c1` ; what composite Z-score value has been reported?
0.307

Then what about the compound `CCN1C(C)=C(C(=O)OC)[C@@H](c2ccccc2)N2C(=O)[C@@]3(C(=O)OC)O[C@@]12[C@@H]1C(=O)N(C)C(=O)[C@@H]13` ?
0.0523

====

# TEST TARGET: Epidermal growth factor receptor (Homo sapiens)
# EXPERIMENT NOTES: EGFR binders on small-molecule microarrays, primary screen, biochemical, small-molecule microarray, 635 nm fluorescence (AID 1104);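 further: score merges 667 nm emission intensity with spot signal to noise over triplicate slides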
# CONDITION INFO: EGFR binding, higher = more signal
# binarize composite z-score: threshold 0.2 inclusive, high side Met, low side Not met

Sample answers from the record:
[[record]]
molecule = "COCCOC(=O)N1C(=O)[C@@]2(c3cc(C#CCNC(N)=O)ccc31)[C@H](c1ccc(OCCO)cc1)N1[C@H](c3ccccc3)[C@H](c3ccccc3)OC(=O)[C@H]1[C@@H]2C(=O)N1CCCCCCC1"
class = "Not met"

[[record]]
molecule = "CO[C@]12C=C(Br)[C@@H](C[C@@H]1c1ccccc1)[C@@]1(CO1)C2=O"
class = "Met"

[[record]]
molecule = "COC(=O)[C@@]1(Cc2ccccc2)[C@H]2c3cc(C(=O)N4CCCC4)n(CCN4CNCC4=O)c3C[C@H]2CN1C(=O)c1ccccc1"
class = "Not met"

[[record]]
molecule = "CC(C)[C@H]1NC(=O)[C@@]23C(=O)N[C@@H](Cc4ccccc4)C2[C@H](C)[C@@]2(C)O[C@H]2C3/C=C/C/C=C\\CNC(=O)[C@H](C)NC1=O (some centres not stated)"
class = "Not met"

[[record]]
molecule = "COc1ccc([Si](C)(C)[C@@H]2[C@@H](CCO)O[C@]3(C(=O)N(Cc4ccc(NC(=O)[C@H](C)O)cc4)c4ccccc43)[C@H]2C)cc1"
class = "Met"

[[record]]
molecule = "CC(C)N1CC=CC23O[C@@H]4/C=C\\CCCOC(=O)C4[C@H]2C(=O)N(CCO)[C@@H]3C1=O (some centres not stated)"
class = "Not met"


In the following, a different molecule is considered.
Item `C=CC[C@]1(C(=O)N2CCCCC2)N=C(c2ccc(OCCCO)cc2)O[C@H]1c1ccccc1N=[N+]=[N-]` with composite z-score of 0.2 or above?
Met

====

# EXPERIMENT NOTES: basal S. cerevisiae growth modulation, no modifier, primary screen, OD600, strain BY4716, 24 h, basal condition (AID 1173)
# CONDITION INFO: OD600, 24 h, higher = more signal, called active from +8 up or from −8 down
# Lookup of reported z-score keyed by entry
Reply briefly: the number, and no unit.

Suppose we examine the compound C=CCC(OC(C)=O)[C@@H]1[C@@H](N(Cc2ccc(-c3ccccc3)cc2)C(=O)c2ccc(-c3ccccc3)cc2)c2cc(OCCCO)ccc2N1C(=O)Cc1ccc(OC)cc1 (some centres not stated) ; what z-score value has been reported?
0.335

Then what about the compound `Cc1ccc(S[C@]2(C(=O)NC3CC3)CC(=O)N(Cc3cc(C(F)(F)F)cc(C(F)(F)F)c3)[C@@H]2c2ccc(CO)cc2)cc1` ?
-1.03

Then what about the compound `CCOC(=O)C1=C[C@@H](c2ccccc2)N(S(=O)(=O)c2ccc(C)cc2)[C@H]1c1ccc(F)cc1` ?
1.87

Then what about the compound `C=CC[C@]1(C(=O)O)N=C(c2ccc(OCCCO)cc2)O[C@H]1c1ccccc1N=[N+]=[N-]` ?
-0.761

Then what about the compound `COCCOC(=O)N1C(=O)[C@@]2(c3cc(C#CCNC(N)=O)ccc31)[C@H](C(=O)N1CCCCCCC1)[C@H]1C(=O)O[C@H](c3ccccc3)[C@H](c3ccccc3)N1[C@@H]2c1ccccc1OCCO` ?
1.41

Then what about the compound `C=C(C(=O)CC[C@H](OC(=O)c1ccccc1-c1ccccc1C(=O)O)c1ccc(CO)o1)C(C)C` ?
0.656

Then what about the compound `COc1cccc([C@@H]2[C@@H](C)CC[C@H]3C(=O)N4[C@H](c5cccc(OC)c5)[C@@H](C)CC[C@H]4C(=O)N23)c1` ?
-2.76

Then what about the compound `O=C1C[C@@](C(=O)NC2CC2)(c2ccc([N+](=O)[O-])cc2)[C@@H](c2ccc(CO)cc2I)N1CC12CC3CC(CC(C3)C1)C2` ?
0.579

Then what about the compound `O=C/C=C/c1ccccc1Cl` ?
-7.23

Then what about the compound `CC(C)(C)OC(=O)CC[C@@]1(C(=O)NCc2ccccc2)N=C(c2ccc(OCCCO)cc2)O[C@@H]1c1ccccc1` ?
-0.454

Then what about the compound `CC(=O)NCCCC[C@@H]1NC(=O)[C@H]2C[C@@H](C(=O)NCCCCCCN(C)C)[C@@H](c3cccc(OCCO)c3)N2C1=O` ?
-1.16

Then what about the compound `COc1cc(CO)cc(I)c1O[C@H]1C=C(C(=O)NCCO)C[C@@H](N(CC2CCCCC2)C(=O)c2cc3ccccc3oc2=O)[C@@H]1O` ?
-0.514

====

# EXPERIMENT NOTES: adipocyte viability effects, profiling panel, cell-based, 3T3-L1 adipocytes, calcein-AM fluorescence, 48 h, basal (AID 1163); further: test concentration not given here
# CONDITION INFO: 3T3-L1 adipocytes viability, higher = more signal
Field: label. Allowed values: Criterion met (z-score < 0.9) or Criterion not met (z-score >= 0.9).

[[record]]
smiles_structure = "O=C1C[C@@](C(=O)NCCN2CCOCC2)(c2ccc([N+](=O)[O-])cc2)[C@@H](c2ccc(CO)cc2)N1C1CCCCC1"
class = "Criterion not met"

[[record]]
smiles_structure = "CC(=O)NCCCC[C@@H]1NC(=O)[C@H]2C[C@@H](C(=O)NCCCCCCN(C)C)[C@@H](c3cccc(OCCO)c3)N2C1=O"
class = "Criterion met"

[[record]]
smiles_structure = "CCCCO[C@H]1C[C@H]2C(Br)=C[C@@]1(CO)C(=O)[C@]21CO1"
class = "Criterion met"

[[record]]
smiles_structure = "CO[C@H]1O[C@H](CO)[C@@H](OC(=O)Nc2ccc3c(c2)OCO3)[C@H](OC(=O)Nc2ccccc2)[C@@H]1OC(=O)Nc1ccccc1"
class = "Criterion met"

[[record]]
smiles_structure = "C[C@]1(C(=O)NCc2ccccc2)c2ccccc2C(=O)N(Cc2cc(C(F)(F)F)cc(C(F)(F)F)c2)[C@H]1c1ccc(CO)cc1"
class = "Criterion not met"

[[record]]
smiles_structure = "CO[C@H]1COC(=O)[C@H](CCSC)NC(=O)CC=C[C@@H](C)COC(=O)[C@@H](OCc2ccccc2)C=C[C@@H]1C"
class = "Criterion met"


In the following, a different compound is considered.
I'd appreciate it if you could check whether `O=C1c2ccccc2[C@](Cc2ccccc2I)(C(=O)NCc2ccccc2)[C@H](c2ccc(CO)cc2)N1Cc1ccccc1C(F)(F)F` has z-score smaller than 0.9.
Criterion not met
